experiment: Distribution coefficient, log D at pH 7.3; type: physicochemical; conditions: octanol/water
Collected logD values appear next to each entry.
# answer = number (no unit)

Solved entries:
C[C@H](NC(=O)C(C)(C)Oc1ccc(C(F)(F)F)cn1)[C@@H](Cc1ccc(OCCF)cc1)c1cccc(C#N)c1 | 4.4
C[C@H](NC(=O)C(C)(C)Oc1ccc(C#N)cn1)[C@@H](Cc1ccc(OCCF)cc1)c1cccc(C#N)c1 | 3.3

# input Looking for the measured logD of `C[C@H](NC(=O)C(C)(C)Oc1ccc(C(F)(F)F)cn1)[C@@H](Cc1ccc(Cl)cc1)c1cccc(C#N)c1` , can you help?
# output 5.2
